Entries and their IC50
molecular target: TLR8 (Homo sapiens); test: HEK TLR8 Cell Assay; details: TLR8/NFKb HEK cells, R848 agonist 30 uM final, Steady-Glo readout
Sequence (Q9NR97 27-1041): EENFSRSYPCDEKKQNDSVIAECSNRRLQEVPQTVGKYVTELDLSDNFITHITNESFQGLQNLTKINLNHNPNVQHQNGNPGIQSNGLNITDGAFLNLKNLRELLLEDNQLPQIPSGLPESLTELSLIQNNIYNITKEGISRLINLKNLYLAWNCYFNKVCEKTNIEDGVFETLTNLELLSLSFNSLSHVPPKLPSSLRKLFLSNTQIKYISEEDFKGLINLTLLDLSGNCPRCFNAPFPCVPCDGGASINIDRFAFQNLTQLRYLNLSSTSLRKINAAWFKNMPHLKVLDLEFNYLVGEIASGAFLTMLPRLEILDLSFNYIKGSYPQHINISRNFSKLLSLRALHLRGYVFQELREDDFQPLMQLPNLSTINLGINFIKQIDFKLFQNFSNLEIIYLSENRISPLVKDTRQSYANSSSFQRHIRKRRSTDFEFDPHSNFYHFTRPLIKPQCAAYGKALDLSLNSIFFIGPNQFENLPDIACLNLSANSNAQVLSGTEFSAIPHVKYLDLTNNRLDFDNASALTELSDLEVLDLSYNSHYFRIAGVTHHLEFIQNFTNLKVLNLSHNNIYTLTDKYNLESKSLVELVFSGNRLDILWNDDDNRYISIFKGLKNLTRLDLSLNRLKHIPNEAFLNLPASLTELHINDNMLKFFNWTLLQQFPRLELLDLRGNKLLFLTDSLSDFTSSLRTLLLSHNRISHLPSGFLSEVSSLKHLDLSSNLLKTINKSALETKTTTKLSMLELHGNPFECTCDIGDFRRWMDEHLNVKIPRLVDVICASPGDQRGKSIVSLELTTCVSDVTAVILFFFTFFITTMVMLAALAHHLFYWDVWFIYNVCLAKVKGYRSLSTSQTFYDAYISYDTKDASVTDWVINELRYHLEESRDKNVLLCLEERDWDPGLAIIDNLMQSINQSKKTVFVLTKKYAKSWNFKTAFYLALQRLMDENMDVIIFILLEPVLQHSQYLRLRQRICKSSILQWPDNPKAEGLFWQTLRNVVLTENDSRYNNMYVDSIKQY
MEASURED PARAMETER: IC50

1) C[C@@H]1CN(c2ccc(C#N)c3nccnc23)C[C@@H]1NC(=O)CC1(C)CCN(C)CC1 [Compound 8]
< 1 µM
2) C[C@@H]1CN(c2ccc(C#N)c3nccnc23)C[C@@H]1N [Compound 1]
1 to 10 µM
3) C[C@@H]1CN(c2ccc(C#N)c3nccnc23)C[C@@H]1NC(=O)CN1CCOCC1 [Compound 7]
1 to 10 µM
4) Cc1ccc(N2C[C@@H](C)[C@@H](NC(=O)C(O)C3CC3)C2)c2cccnc12 (single isomer, unassigned) [Compound 46]
> 10 µM
5) C[C@@H]1CN(c2ccc(C(F)(F)F)c3ncccc23)C[C@@H]1NC(=O)C(O)C1CC1 (single isomer, unassigned) [Compound 29]
> 10 µM

* * *

biological target: TLR7 (Homo sapiens, UniProt Q9NYK1); experiment: HEK TLR7 Cell Assay; conditions: TLR7/NFKb HEK cells, R848 agonist 10 uM final, Steady-Glo readout
MEASURED PARAMETER: IC50

1. C[C@@H]1CN(c2ccc(C#N)c3nccnc23)C[C@@H]1NC(=O)C(O)C1CC1 (single isomer, unassigned) [Compound 14]
< 1000 nM
2. C[C@@H]1CN(c2ccc(C#N)c3nccnc23)C[C@@H]1NC(=O)CC1CCN(C)CC1(F)F (single isomer, unassigned) [Compound 12]
< 1000 nM
3. CC(C)[C@@H](O)C(=O)N[C@H]1CN(c2ccc(C#N)c3nccnc23)C[C@H]1C [Compound 16]
1000 to 10000 nM
4. CCN(CC)CCNC(=O)C1CCN(c2ccnc3nccnc23)C1 (centres unmarked) [Compound 54]
> 10000 nM
5. Cc1ccc(N2C[C@@H](C)[C@@H](NC(=O)CC3CCN(C)CC3(F)F)C2)c2cccnc12 (single isomer, unassigned) [Compound 43]
1000 to 10000 nM

* * *

Entries and their IC50
target: TLR8 (Homo sapiens); experiment: HEK TLR8 Cell Assay; settings: TLR8/NFKb HEK cells, R848 agonist 30 uM final, Steady-Glo readout
MEASURED PARAMETER: IC50

1) C[C@@H]1CN(c2ccc(C(F)(F)F)c3ncccc23)C[C@@H]1NC(=O)CC1CCN(C)CC1
< 1 µM
2) CC(C)[C@@H](O)C(=O)N[C@H]1CN(c2ccc(C#N)c3nccnc23)C[C@H]1C
1 to 10 µM
3) CC(C)[C@@H](O)C(=O)N[C@H]1CN(c2ccc(C(F)(F)F)c3ncccc23)C[C@H]1C
> 10 µM
4) C[C@@H]1CN(c2ccc(C(F)(F)F)c3ncccc23)C[C@@H]1NC(=O)CC1(F)CCNCC1
< 1 µM
5) C[C@@H]1CN(c2ccc(C(F)(F)F)c3ncccc23)C[C@@H]1NC(=O)CC1CCN(C)CC1(F)F (single isomer, unassigned) [Compound 28]
1 to 10 µM
6) C[C@@H]1CN(c2ccc(C#N)c3nccnc23)C[C@@H]1NC(=O)CC1CCN(C)CC1(F)F (single isomer, unassigned) [Compound 12]
< 1 µM
7) C[C@@H]1CN(c2ccc(C(F)(F)F)c3ncccc23)C[C@@H]1NC(=O)CC1CCN(C)CC1(F)F (single isomer, unassigned) [Compound 27]
1 to 10 µM
8) Cc1ccc(N2C[C@@H](C)[C@@H](NC(=O)CC3CCN(C)C3)C2)c2cccnc12 (single isomer, unassigned) [Compound 37]
1 to 10 µM
9) Cc1ccc(N2C[C@@H](C)[C@@H](NC(=O)CC3CCCN(C)C3)C2)c2cccnc12 (single isomer, unassigned) [Compound 35]
1 to 10 µM
10) C[C@@H]1CN(c2ccc(C(F)(F)F)c3ncccc23)C[C@@H]1NC(=O)CC1CCCN(C)C1 (single isomer, unassigned) [Compound 20]
1 to 10 µM
11) C[C@@H]1CN(c2ccc(C#N)c3nccnc23)C[C@@H]1NC(=O)CC1CCN(C)CC1
< 1 µM
12) Cc1ncc(N2C[C@@H](C)[C@@H](NC(=O)CC3CCN(C)CC3)C2)c2cccnc12
> 10 µM
13) C[C@@H]1CN(c2ccc(C#N)c3nccnc23)C[C@@H]1NC(=O)CC1CCCN(C)C1 (single isomer, unassigned) [Compound 4]
< 1 µM
14) Cc1cc2c(N3CCC(CNCCN4CCCCC4)C3)ccnc2n1C (centres unmarked)
> 10 µM

* * *

Target: TLR7 (Homo sapiens, UniProt Q9NYK1)
Experiment: HEK TLR7 Cell Assay
Conditions: TLR7/NFKb HEK cells, R848 agonist 10 uM final, Steady-Glo readout
Procedure: Example 24: HEK TLR7 Cell Assay Into 384 CulturePlates (Corning 3707) was placed 5000 c/w of TLR7/NFKb HEK cells in 30 uL DMEM without Phenol red (gibco #31053) and 10% FCS-HI, 2 mM L-Glutamine, 1% Pen/Strept. The cells are incubated for 24 h at 37 degrees Celsius, and 10% carbon dioxide. […] Let the assay plate sit for 30 min at room temperature and then read plate on EnVision.
MEASURED PARAMETER: IC50

1) C[C@@H]1CN(c2ccc(C#N)c3nccnc23)C[C@@H]1NC(=O)CC1CCN(C)C1 (single isomer, unassigned) [Compound 6]
< 1 µM
2) C[C@@H]1CN(c2ccc(C(F)(F)F)c3ncccc23)C[C@@H]1NC(=O)CC1CCN(C)CC1(F)F (single isomer, unassigned) [Compound 28]
1 to 10 µM
3) Cc1ccc(N2C[C@@H](C)[C@@H](NC(=O)CC3(F)CCN(C)CC3)C2)c2cccnc12 [Compound 42]
< 1 µM
4) C[C@@H]1CN(c2ccc(C(F)(F)F)c3ncccc23)C[C@@H]1NC(=O)C(O)C1CC1 (single isomer, unassigned) [Compound 29]
1 to 10 µM
5) CC(C)[C@@H](O)C(=O)N[C@H]1CN(c2ccc(C(F)(F)F)c3ncccc23)C[C@H]1C [Compound 32]
> 10 µM
6) NC1CN(c2ccc(C(F)(F)F)c3ncccc23)CC1F (single isomer, unassigned) [Compound 50]
> 10 µM
7) NC1CN(c2ccc(C(F)(F)F)c3ncccc23)CC1F (single isomer, unassigned) [Compound 49]
> 10 µM

* * *

molecular target: TLR7 (Homo sapiens); assay: HEK TLR7 Cell Assay; details: TLR7/NFKb HEK cells, R848 agonist 10 uM final, Steady-Glo readout
Entries and their IC50
MEASURED PARAMETER: IC50

1. C[C@@H]1CN(c2ccc(C(F)(F)F)c3ncccc23)C[C@@H]1NC(=O)CC1(F)CCNCC1 [Compound 25]
< 1000 nM
2. Cc1ncc(N2C[C@@H](C)[C@@H](NC(=O)CC3CCN(C)CC3)C2)c2cccnc12 [Compound 52]
< 1000 nM
3. Cc1ccc(N2C[C@@H](C)[C@@H](NC(=O)CC3CCN(C)CC3(F)F)C2)c2cccnc12 (single isomer, unassigned) [Compound 44]
1000 to 10000 nM
4. Cc1ccc(N2C[C@@H](C)[C@@H](NC(=O)CC3CCCN(C)C3)C2)c2cccnc12 (single isomer, unassigned) [Compound 35]
1000 to 10000 nM
5. C[C@@H]1CN(c2ccc(C#N)c3nccnc23)C[C@@H]1NC(=O)CC1(F)CCNCC1 [Compound 9]
< 1000 nM
6. C[C@@H]1CN(c2ccc(C#N)c3nccnc23)C[C@@H]1NC(=O)CC1CCCN(C)C1 (single isomer, unassigned) [Compound 3]
< 1000 nM
7. C[C@@H]1CN(c2ccc(C#N)c3nccnc23)C[C@@H]1NC(=O)CC1CCN(C)C1 (single isomer, unassigned) [Compound 5]
< 1000 nM

* * *

Entries and their pIC50
Target: TLR7 (Homo sapiens, UniProt Q9NYK1)
Sequence (Q9NYK1 27-1049): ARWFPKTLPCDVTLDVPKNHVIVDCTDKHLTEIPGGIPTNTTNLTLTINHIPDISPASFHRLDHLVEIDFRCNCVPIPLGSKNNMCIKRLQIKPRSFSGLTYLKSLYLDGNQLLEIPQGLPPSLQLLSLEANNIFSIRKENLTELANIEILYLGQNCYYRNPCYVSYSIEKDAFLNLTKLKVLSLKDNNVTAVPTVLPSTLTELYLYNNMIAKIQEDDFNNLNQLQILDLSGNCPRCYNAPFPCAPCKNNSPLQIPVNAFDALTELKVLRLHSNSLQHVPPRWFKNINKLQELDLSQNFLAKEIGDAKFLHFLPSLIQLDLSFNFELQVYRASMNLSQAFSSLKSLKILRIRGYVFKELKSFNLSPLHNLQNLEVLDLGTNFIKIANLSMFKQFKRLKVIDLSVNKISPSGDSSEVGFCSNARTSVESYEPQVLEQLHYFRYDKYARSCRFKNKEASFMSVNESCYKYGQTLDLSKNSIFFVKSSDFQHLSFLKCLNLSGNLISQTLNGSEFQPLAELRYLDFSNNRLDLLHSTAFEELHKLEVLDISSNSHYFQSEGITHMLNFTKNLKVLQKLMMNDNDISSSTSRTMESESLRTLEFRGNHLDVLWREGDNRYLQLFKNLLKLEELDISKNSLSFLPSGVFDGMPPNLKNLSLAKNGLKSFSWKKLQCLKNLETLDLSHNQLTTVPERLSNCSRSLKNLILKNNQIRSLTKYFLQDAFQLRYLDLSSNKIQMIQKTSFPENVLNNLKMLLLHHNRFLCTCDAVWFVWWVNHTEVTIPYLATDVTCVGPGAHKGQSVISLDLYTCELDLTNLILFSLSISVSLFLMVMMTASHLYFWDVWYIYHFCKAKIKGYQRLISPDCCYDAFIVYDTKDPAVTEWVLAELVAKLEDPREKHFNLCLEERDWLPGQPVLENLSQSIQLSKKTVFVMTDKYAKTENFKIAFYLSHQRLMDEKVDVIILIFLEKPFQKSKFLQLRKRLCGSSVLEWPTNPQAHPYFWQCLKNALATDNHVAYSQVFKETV
Assay: HEK TLR7 Cell Assay
Conditions: TLR7/NFKb HEK cells, R848 agonist 10 uM final, Steady-Glo readout
pIC50: −log10 of the molar value.
MEASURED PARAMETER: pIC50

1. Cc1ccc(N2C[C@@H](C)[C@@H](NC(=O)CN3CCOCC3)C2)c2cccnc12
5.00 to 6.00
2. C[C@@H]1CN(c2ccc(C(F)(F)F)c3ncccc23)C[C@@H]1NC(=O)CC1CCN(C)C1 (single isomer, unassigned) [Compound 21]
> 6.00
3. C[C@@H]1CN(c2ccc(C#N)c3nccnc23)C[C@@H]1NC(=O)C(O)C1CC1 (single isomer, unassigned) [Compound 13]
5.00 to 6.00
4. Cc1ccc(N2C[C@@H](C)[C@@H](NC(=O)CC3CCN(C)C3)C2)c2cccnc12 (single isomer, unassigned) [Compound 37]
> 6.00

Origin of the recorded values: patent US10793553B2
